Molecular target: UniProtKB P97266
Sequence (P97266 whole entry): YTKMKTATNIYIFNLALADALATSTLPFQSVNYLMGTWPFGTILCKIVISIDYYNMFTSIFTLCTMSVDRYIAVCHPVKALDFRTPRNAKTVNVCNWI
ENDPOINT NAME: Ki (nM)
Hi! Could you send only the number? It should be in nM, unit omitted.

// query Which value of Ki has been reported for COCC[C@H]1CC2CN3CCc4c([nH]c5ccccc45)[C@](C(=O)OC)(C2)[C@H]13 [18-METHOXYCORONARIDINE] in the records?
// result 1100

###

Target: Kappa-type opioid receptor (Cavia porcellus)
Test: Inhibition of [3H]U-69593 binding to Opioid receptor kappa 1 from guinea pig brain membranes
Set-up: concentration or dose not given beside the values
Conditions: concentration not given here
ENDPOINT NAME: inhibition (%)
Hi! Could you send only the number? It should be in %, unit omitted.

Below, each entry is followed by its recorded inhibition result.
* COC(=O)[C@@]12CC3C[C@H](CCN(C)C)[C@@H]1N(CCc1c2[nH]c2ccccc12)C3 | 11
* COCCC1C2CN3CCc4c([nH]c5ccccc45)[C@](C(=O)OC)(C2)[C@H]13 (some centres undefined) | 10
* COCCNC(=O)[C@@]12CC3C[C@H](CCOC)[C@@H]1N(CCc1c2[nH]c2ccccc12)C3 | 6

// query Request: inhibition, test system Kappa-type opioid receptor (Cavia porcellus), entry COCC[C@H]1CC2CN3CCc4c([nH]c5ccccc45)[C@](C(=O)OCCN(C)C)(C2)[C@H]13
// result 78
